assay: probe aWnt5a binding to arrayed compounds – biochemical, biotinylated probe, 635/667 nm fluorescence, primary screen (AID 1113); conditions: small-molecule microarray, higher = more signal;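 also: score merges 667 nm fluorescence intensity with signal-to-noise per printed feature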
parameter.measured: composite z-score
Give a plain numeric answer without units written out.

Examples with answers:
• C=CCC(OC(C)=O)[C@@H]1[C@@H](N(Cc2ccc(-c3ccccc3)cc2)C(=O)c2cccc3ccccc23)c2cc(OCCCO)ccc2N1C(=O)Cc1ccc(OC)cc1 (stereo not given in full) = -0.0405
• Cc1ccc(S[C@]2(C(=O)NC(C)C)CC(=O)N(C3CCCCC3)[C@@H]2c2ccc(CO)cc2I)cc1 = -0.0721
• CN(C)CCCC[C@@H]1NC(=O)[C@H]2C[C@@H](C(=O)O)[C@@H](c3ccc(O)cc3)N2C1=O = 0.866
• COc1ccc([Si](C)(C)[C@@H]2[C@@H](CC(=O)N3CCC[C@H]3CO)O[C@]3(C(=O)N(Cc4ccc(N5CCOC5=O)cc4)c4ccccc43)[C@H]2C)cc1 = -0.175

Query compound follows.
**Q:** What value of composite z-score has been recorded for this entry: Cc1ccc(N2C(=O)c3ccccc3[C@](C)(C(=O)NCCCN(C)C)[C@@H]2c2ccc(CO)cc2)nc1
**A:** -0.148

----------
experiment: optical density change of DRC41 E. coli – strain DRC41, OD650, 24 h, E. coli filamentation project, primary screen (AID 1093);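 also: MC1000 strain lacking acrAB efflux and sulA so SOS filamentation is blocked; test concentration not given here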; details: E. coli DRC41 growth, higher = more signal, called active from +8 up or from −8 down
Classification field: 1.0 = z-score at or over 0.3; 0.0 = z-score under 0.3.

* CCN(CC)c1ccc(N2CC=CC34O[C@@H]5C=CCCOC(=O)C5[C@H]3C(=O)N(C(C)CO)[C@@H]4C2=O)cc1 (some centres not stated) | 0.0

**Q:** Reported z-score at or above 0.3? COc1cc(C(O)C2C=CC3C(=O)N(c4ccccc4)C(=O)C3N2Nc2ccccc2)cc(OC)c1OC (configuration not stated)
**A:** 0.0

**Q:** # repeat for CCCC[C@H]1C[C@@H]1[C@@H]1N(C(C)=O)[C@H](c2cccc(OC)c2)CC12CC2
**A:** 0.0

**Q:** # repeat for C#CCN1[C@@H](Cc2ccccc2)C(=O)O[C@H](Cc2ccccc2)[C@@H]1/C=C/C1CC1
**A:** 1.0

**Q:** # repeat for COc1cc(OC)c(C(O)C2C=CC3C(=O)N(c4ccccc4)C(=O)C3N2Nc2ccc(C(C)C)cc2)cc1Br (configuration not stated)
**A:** 1.0

**Q:** # repeat for OCCCC1=CC(c2ccc(CN3CCCC3)cc2)N(Cc2cccc(OC(F)(F)F)c2)CC1 (configuration not stated)
**A:** 0.0

**Q:** # repeat for COCCOC(=O)N1C(=O)[C@@]2(c3cc(C#CCC(C(=O)OC)C(=O)OC)ccc31)[C@H](C(=O)Nc1nc3ccccc3s1)[C@H]1C(=O)O[C@H](c3ccccc3)[C@H](c3ccccc3)N1[C@@H]2c1ccc(O)cc1
**A:** 0.0

----------
target: Torsin-1A (Homo sapiens); assay: TOR1A wild-type binding on microarray – cell lysate, small-molecule microarray, lysate, 635/667 nm, primary screen (AID 1149); details: COS7 hTOR1A-WT lysate, 635 nm fluorescence, higher = more signal
Classify by composite z-score. Ranges: lower segment: < -0.04; middle segment: ≥ -0.04 and < 0.4; upper segment: ≥ 0.4

**Q:** Bin this entry: CCCCC(O)C1C=CC2C(=O)N(c3ccccc3)C(=O)C2N1Nc1ccccc1 (stereo unspecified)
**A:** lower segment

----------
target: Neurogenic locus notch homolog protein 3 (Homo sapiens) (UniProt Q9UM47); assay: small molecules binding NOTCH3 protein – biochemical, 635/667 nm fluorescence, primary screen (AID 1096); details: small-molecule microarray, 635 nm fluorescence, higher = more signal
Sequence (Q9UM47 whole entry, looked up): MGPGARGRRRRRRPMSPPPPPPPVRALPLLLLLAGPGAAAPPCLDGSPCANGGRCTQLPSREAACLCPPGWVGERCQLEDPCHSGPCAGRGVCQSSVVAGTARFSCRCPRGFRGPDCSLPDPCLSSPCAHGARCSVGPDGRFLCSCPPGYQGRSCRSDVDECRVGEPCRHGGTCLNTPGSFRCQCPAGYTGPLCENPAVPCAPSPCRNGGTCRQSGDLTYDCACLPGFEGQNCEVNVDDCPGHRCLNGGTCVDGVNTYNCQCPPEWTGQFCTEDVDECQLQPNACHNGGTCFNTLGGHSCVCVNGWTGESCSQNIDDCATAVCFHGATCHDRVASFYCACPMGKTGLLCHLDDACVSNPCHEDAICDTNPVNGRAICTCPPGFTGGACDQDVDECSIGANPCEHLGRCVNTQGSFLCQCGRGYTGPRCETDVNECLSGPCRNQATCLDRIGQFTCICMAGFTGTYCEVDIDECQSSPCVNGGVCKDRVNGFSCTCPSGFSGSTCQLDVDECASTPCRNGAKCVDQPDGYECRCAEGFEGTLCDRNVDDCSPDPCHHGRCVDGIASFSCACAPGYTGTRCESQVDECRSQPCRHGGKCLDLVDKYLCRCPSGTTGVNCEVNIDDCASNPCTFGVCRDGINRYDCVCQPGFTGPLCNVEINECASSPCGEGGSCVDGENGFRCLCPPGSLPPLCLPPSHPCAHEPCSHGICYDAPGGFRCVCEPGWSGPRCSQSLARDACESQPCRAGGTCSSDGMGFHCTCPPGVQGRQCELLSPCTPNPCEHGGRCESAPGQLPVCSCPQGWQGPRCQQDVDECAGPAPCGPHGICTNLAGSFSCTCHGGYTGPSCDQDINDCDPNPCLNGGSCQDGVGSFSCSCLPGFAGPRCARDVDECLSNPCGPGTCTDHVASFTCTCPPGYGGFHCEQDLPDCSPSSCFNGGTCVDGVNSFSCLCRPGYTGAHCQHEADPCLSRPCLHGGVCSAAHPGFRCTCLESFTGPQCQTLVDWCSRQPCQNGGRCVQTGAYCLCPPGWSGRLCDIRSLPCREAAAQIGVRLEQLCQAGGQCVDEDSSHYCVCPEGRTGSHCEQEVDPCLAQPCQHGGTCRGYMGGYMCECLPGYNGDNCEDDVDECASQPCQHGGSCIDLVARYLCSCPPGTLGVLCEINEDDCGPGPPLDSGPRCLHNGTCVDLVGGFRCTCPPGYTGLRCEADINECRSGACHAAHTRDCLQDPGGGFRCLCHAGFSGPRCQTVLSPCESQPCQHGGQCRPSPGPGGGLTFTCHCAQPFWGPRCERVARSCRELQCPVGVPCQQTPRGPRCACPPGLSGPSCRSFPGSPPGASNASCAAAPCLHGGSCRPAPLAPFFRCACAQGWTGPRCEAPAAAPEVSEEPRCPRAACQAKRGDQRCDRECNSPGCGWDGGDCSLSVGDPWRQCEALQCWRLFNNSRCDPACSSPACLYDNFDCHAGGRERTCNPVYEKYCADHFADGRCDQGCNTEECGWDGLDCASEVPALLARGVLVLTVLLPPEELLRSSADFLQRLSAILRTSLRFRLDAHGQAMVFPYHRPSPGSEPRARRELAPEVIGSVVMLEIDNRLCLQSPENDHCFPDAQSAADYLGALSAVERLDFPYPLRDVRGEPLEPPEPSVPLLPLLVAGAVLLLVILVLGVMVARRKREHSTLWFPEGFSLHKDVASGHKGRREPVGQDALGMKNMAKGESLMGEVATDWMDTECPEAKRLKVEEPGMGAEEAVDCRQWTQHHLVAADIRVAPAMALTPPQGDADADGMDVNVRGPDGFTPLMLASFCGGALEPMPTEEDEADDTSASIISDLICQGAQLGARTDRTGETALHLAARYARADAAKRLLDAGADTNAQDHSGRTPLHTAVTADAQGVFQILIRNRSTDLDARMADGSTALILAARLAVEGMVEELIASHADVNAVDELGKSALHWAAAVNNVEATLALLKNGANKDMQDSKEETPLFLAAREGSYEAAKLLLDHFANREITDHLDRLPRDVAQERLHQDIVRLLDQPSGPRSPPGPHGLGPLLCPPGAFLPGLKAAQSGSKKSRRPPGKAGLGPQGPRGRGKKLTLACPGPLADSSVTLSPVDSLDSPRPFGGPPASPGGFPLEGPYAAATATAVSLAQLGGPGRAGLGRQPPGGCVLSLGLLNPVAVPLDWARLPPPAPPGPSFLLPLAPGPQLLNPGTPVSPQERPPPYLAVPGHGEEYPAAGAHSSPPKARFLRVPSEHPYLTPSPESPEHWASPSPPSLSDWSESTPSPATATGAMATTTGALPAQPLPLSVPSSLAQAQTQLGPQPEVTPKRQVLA
The compounds listed here are annotated with their composite z-score.
Give a plain numeric answer without units written out.

Examples with answers:
* C=CCOC(=O)[C@@H]1[C@H]2C(=O)O[C@H](c3ccccc3)[C@H](c3ccccc3)N2[C@H](c2ccc(OCCOC(=O)[C@H]3C[C@H]4C(=O)N5CCC[C@H]5C(=O)N4[C@H]3c3cccc(OCCO)c3)cc2)[C@@]12C(=O)Nc1ccc(I)cc12 | 1.11
* O=C1C2C=CC(C(O)c3c(F)cccc3Cl)N(Nc3ccc([N+](=O)[O-])cc3)C2C(=O)N1c1ccccc1 (stereo not drawn) | 1.09

Query compound follows.
**Q:** What value of composite z-score has been recorded for this entry: COCCCNC(=O)[C@@]1(Sc2ccc(C)cc2)CC(=O)N(Cc2ccccc2C(F)(F)F)[C@@H]1c1ccc(CO)cc1I
**A:** -1.4

----------
The compounds listed here are annotated with their composite z-score.
test: probe aLAP1 signal on lysate-treated microarray – cell lysate, small-molecule microarray, COS7 lysate, primary screen (AID 1124); conditions: probe aLAP1, fluorescence, higher = more signal;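 also: lysate comes from COS7 cells expressing LAP1 and is applied at 0.3 µg/mL; score merges spot fluorescence near 667 nm with signal-to-noise over triplicate slides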
Give a plain numeric answer without units written out.

**Q:** What value of composite z-score has been recorded for this entry: CC(=O)NCCCC[C@@H]1NC(=O)[C@H]2C[C@@H](C(=O)NCCCCCCNC(=O)CS)[C@@H](c3cccc(OCCO)c3)N2C1=O
**A:** 0.537

**Q:** # repeat for C=CCOC(=O)[C@@H]1[C@H]2C(=O)O[C@H](c3ccccc3)[C@H](c3ccccc3)N2[C@H](c2ccc(OCCOC(=O)[C@H]3C[C@H]4C(=O)N5CCC[C@H]5C(=O)N4[C@H]3c3cccc(OCCO)c3)cc2)[C@@]12C(=O)Nc1ccc(I)cc12
**A:** 0.448

**Q:** # repeat for O=C1O[C@H](c2ccccc2)[C@H](c2ccccc2)N2[C@H]1[C@@H](C(=O)N1CCN(c3ncccn3)CC1)[C@]1(C(=O)Nc3ccc(C#CCCO)cc31)[C@H]2c1ccc(O)cc1
**A:** 0.608

----------
The molecules listed here are annotated with their composite z-score.
test: probe aEGFR binding to arrayed compounds – biochemical, biotinylated probe, 635/667 nm fluorescence, primary screen (AID 1097); conditions: small-molecule microarray, higher = more signal;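 also: probe is a biotinylated anti-EGFR antibody binding compounds printed on slides; score combines fluorescence near 667 nm and signal to noise of each spot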
Give a plain numeric answer without units written out.

**Q:** What value of composite z-score has been recorded for this entry: [N-]=[N+]=Nc1ccccc1C[C@@]1(C(=O)NCc2ccccc2)N=C(c2ccc(OCCCO)cc2)O[C@@H]1c1ccccc1N=[N+]=[N-]
**A:** 0.0883

**Q:** # repeat for CCCN1C(=O)[C@]2(CCC(=O)OC(C)(C)C)N=C(c3ccc(OCCCO)cc3)O[C@@H]2c2ccccc21
**A:** -0.134

**Q:** # repeat for COc1cc(CO)cc(I)c1O[C@H]1C=C(C(=O)NCCO)C[C@@H](NC2CCCCCC2)[C@@H]1O
**A:** -0.0564

**Q:** # repeat for COc1ccc([Si](C)(C)[C@H]2[C@H](CC(=O)N3Cc4ccccc4C[C@H]3CO)O[C@@]3(C(=O)N(C)c4ccccc43)[C@@H]2C)cc1
**A:** -0.0839

**Q:** # repeat for C=C(CCCC)/C(=C/C[C@H](OC(=O)c1ccncc1)c1ccc(OCCO)cc1)c1cnc2ccccc2c1
**A:** 0.0129

**Q:** # repeat for O=C1NC(=O)C2C1C=CC(C(O)c1ccc(B(O)O)cc1)N2Nc1ccc(Cl)cc1Cl (centres undefined)
**A:** -0.0238

**Q:** # repeat for O=C(NC1CC1)[C@@H]1c2ccccc2C(=O)N(Cc2ccc(OC(F)(F)F)cc2)[C@H]1c1ccc(CO)cc1
**A:** -0.0679

**Q:** # repeat for COc1ccc(NN2C(C(O)c3ccc(I)cc3)C=CC3C(=O)N(C4CCCCC4)C(=O)C32)cc1 (centres undefined)
**A:** 0.257

**Q:** # repeat for O=C(NCc1ccc(F)cc1)[C@H]1C[C@H]2C(=O)N3CCC[C@H]3C(=O)N2[C@H]1c1ccc(O)cc1
**A:** -0.169

**Q:** # repeat for CCCC=C(CCC)[C@@H](NC(=O)OCC(C)C)c1ccc(C(=O)OC)cc1
**A:** -0.123

**Q:** # repeat for COC(=O)C(CC#Cc1ccc2c(c1)[C@]1(C(=O)N2)[C@H](C(=O)N2CCc3cc(OC)c(OC)cc3C2)[C@H]2C(=O)O[C@H](c3ccccc3)[C@H](c3ccccc3)N2[C@@H]1c1ccccc1OCCO)C(=O)OC
**A:** 0.0457

**Q:** # repeat for C=CC[C@@]1(C(=O)OC)N=C(c2ccc(OCCCO)cc2)O[C@@H]1c1ccccc1N=[N+]=[N-]
**A:** 0.118

**Q:** # repeat for C=CCOC(=O)[C@@H]1[C@H]2C(=O)O[C@H](c3ccccc3)[C@H](c3ccccc3)N2[C@H](c2ccc(OCCOC(=O)[C@H]3C[C@H]4C(=O)N[C@@H](CCCCN(C)C)C(=O)N4[C@H]3c3ccc(O)cc3)cc2)[C@@]12C(=O)Nc1ccc(I)cc12
**A:** -0.0487

**Q:** # repeat for COCCCNC(=O)[C@@H]1c2ccccc2C(=O)N(Cc2ccc(OC(F)(F)F)cc2)[C@H]1c1ccc(CO)cc1
**A:** -0.0949

Cited source for all entries: PubChem BioAssay
